test system: Escherichia coli TOP10; assay: shrunken log2 fold change of peptide-encoding DNA abundance (4.5 h post-induction vs induction); higher = less antimicrobial activity (less host growth inhibition); conditions: time post-induction: 4.5 h; library: site-saturation at positions 5, 18, 19, 20;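 note: peptides expressed intracellularly from a pBAD plasmid library in pooled LB shake-flask culture, induced with 0.3% L-arabinose, DNA abundance read by NGS, three biological replicates, DESeq2 with apeglm shrinkage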
reported.property: shrunken log2 fold change

seq.text: RRIRHRPPRLPRPRPRPHIQPRP
experimental.value: -0.701
//
seq.text: RRIRKRPPRLPRPRPRPFSHPRP
experimental.value: -0.131
//
seq.text: RRIRLRPPRLPRPRPRPQQCPRP
experimental.value: 0.146
//
seq.text: RRIRQRPPRLPRPRPRPTQNPRP
experimental.value: 0.627
//
seq.text: RRIRVRPPRLPRPRPRPIQKPRP
experimental.value: -0.017
//
seq.text: RRIRIRPPRLPRPRPRPHHCPRP
experimental.value: -0.00699
//
seq.text: RRIRQRPPRLPRPRPRPTFMPRP
experimental.value: -0.552
//
seq.text: RRIRVRPPRLPRPRPRPTYVPRP
experimental.value: 0.00864
//
seq.text: RRIRSRPPRLPRPRPRPMENPRP
experimental.value: 0.0424
//
seq.text: RRIRIRPPRLPRPRPRPPKIPRP
experimental.value: -0.106
//
seq.text: RRIRERPPRLPRPRPRPAPCPRP
experimental.value: 0.0086
//
seq.text: RRIRMRPPRLPRPRPRPNIIPRP
experimental.value: 0.23
//
seq.text: RRIRVRPPRLPRPRPRPTKAPRP
experimental.value: -0.142
//
seq.text: RRIRGRPPRLPRPRPRPYRNPRP
experimental.value: -0.39
//
seq.text: RRIRYRPPRLPRPRPRPKNMPRP
experimental.value: -0.477
//
seq.text: RRIRDRPPRLPRPRPRPQCLPRP
experimental.value: 0.0413
//
seq.text: RRIRPRPPRLPRPRPRPRHVPRP
experimental.value: 0.0494
